Reference source for all entries: ChEMBL document CHEMBL1201862

tested on: M19-MEL; assay: NCI tumour cell line growth inhibition, 48 h
Calls of active or inactive are those of the source. Cut-off read from the data, not from the text of the source: active = GI50 up to about 1.1 µM and inactive = higher.
MEASURED METRIC: GI50

The cases that follow already have their GI50 on record.
>>> df
                                   compound  target_of_assay          measurement
0  CCOC(=O)/C=C(/CN1C(=O)c2ccccc2C1=O)c1ccccc1          M19-MEL  > 100 µM (inactive)
1  OCC1OC(n2ccc3cnccc32)CC1O (stereo not drawn)          M19-MEL  > 100 µM (inactive)
2  C=CCc1ccc(O)c(-c2cc(C3Oc4c(-c5cc(CC=C)ccc5O)cc(O)cc4[C@@H]3CO)ccc2O)c1 (stereo partly drawn)          M19-MEL   33.4 µM (inactive)
3                 CSc1nnc(COc2ccc(Cl)cc2)o1          M19-MEL  > 100 µM (inactive)
4                 N#Cc1ccccc1NC(=O)c1ccccc1          M19-MEL  > 100 µM (inactive)
5  O=C(NCCCCCCNC(=O)NC1OCC(O)C(O)C1O)NC1OCC(O)C(O)C1O (stereo not drawn)          M19-MEL  > 100 µM (inactive)

Query: Look up and report measured GI50 for this entry: COC(=O)C(=O)C(C(=O)C(=O)Nc1ccccc1[N+](=O)[O-])c1nc2ccc([N+](=O)[O-])cc2nc1O (stereo not drawn)
Reply: > 100 µM (inactive)

Query: Look up and report measured GI50 for this entry: Cn1cnc(CCc2ccccc2)n1
Reply: > 100 µM (inactive)

Query: Look up and report measured GI50 for this entry: O=C(O)CSc1nnc(-c2ccccc2O)[nH]1
Reply: > 100 µM (inactive)

Query: Look up and report measured GI50 for this entry: O=C1CC2CCN(C(=O)c3ccccc3)CC2CCN1.O=C1CCC2CC(C(=O)c3ccccc3)CCC2CN1 (stereo not drawn)
Reply: > 100 µM (inactive)

Query: Look up and report measured GI50 for this entry: CN(C(=O)c1ccco1)C(=S)N1CCN(c2ccccc2)CC1
Reply: > 100 µM (inactive)

Query: Look up and report measured GI50 for this entry: CC1COS(=O)N1c1ccccc1 (stereo not drawn)
Reply: > 100 µM (inactive)

Query: Look up and report measured GI50 for this entry: Cc1ccc([N+](=O)[O-])cc1NC(=O)C(=O)C(C(=O)c1ccccc1F)C1OC(=O)c2ccccc21 (stereo not drawn)
Reply: 33.4 µM (inactive)

====

Listed next: entries and their corresponding GI50.
tested on: UO-31; experiment: NCI tumour cell line growth inhibition, 48 h
The source made the active and inactive calls. No stated cut-off is given here; in the data, active = GI50 up to about 1.1 µM and inactive = higher.

The cases that follow already have their GI50 on record.
In [3]: df
Out[3]:
                                   molecule          measurement
0  COc1cc(NCc2ccc3n2-c2ccccc2OC3)cc(OC)c1OC   16.8 µM (inactive)
1  O=CC(O)C(O)C(O)C1CNC(=S)O1 (centres undefined)  > 100 µM (inactive)
2  CCOC(=O)C(NCc1cccc(C(F)(F)F)c1)(NC(=O)c1ccccc1)C(F)(F)F (centres undefined)   18.1 µM (inactive)
3  CCOC(=O)CSc1nc(-c2ccccc2)c(C#N)c(=O)[nH]1  > 100 µM (inactive)
4  NC1CCCCC1.O=P(O)(O)C(CSc1ccccc1)P(=O)(O)O  > 100 µM (inactive)

Query: Look up and report measured GI50 for this entry: C[N+]1(C)CC[N+](C)(C)[BH-]1C(O)O
Reply: > 100 µM (inactive)

Query: Look up and report measured GI50 for this entry: CC(OP(=O)(O)O)C(N)C(=O)O (centres undefined)
Reply: > 100 µM (inactive)

Query: Look up and report measured GI50 for this entry: COC(=O)C1(Cc2ccccc2C)Cc2ccc(C)cc2C1=O (centres undefined)
Reply: 36.6 µM (inactive)

Query: Look up and report measured GI50 for this entry: CN(C)/N=N/c1cccc(C(N)=O)c1
Reply: > 100 µM (inactive)
